- Tested on: RPMI-8226 leukemia
- ASSAY METHOD TEXT: NCI-60 one-dose screen, 48 h
- EXPERIMENTAL CONDITIONS: 10 µM unless noted
- Description: Growth inhibition of the RPMI-8226 human tumor cell line is measured as a screen for anti-cancer activity. Cells are grown in 96 well plates and exposed to the test compound for 48 hours. Compounds are tested at a single concentration, which is 10^-5 M for most compounds. The reported endpoint is percent growth (GI% or GIPRCNT), where numbers from 0 - 100% represent growth inhibition, and numbers from -100% - 0 represent cell death. For example, a value of 40 represents 60% growth inhibition. […]
This is part of a sample that, as a whole, favours compounds with a hit. Of some 83,000 tested, about 20% had one in any assay. Activity calls are given as the source filed them. How the source made its calls: active means growth percent below 10; inactive means the rest.
// allowed return values: label 1 = active, label 0 = inactive

Observe how each entry below is paired with its result.
[
  {
    "COMPOUND": "O=c1oc2ccc(Cl)cc2c(=O)n1-c1ccc(I)cc1F",
    "GROUP LABEL": "label 1"
  },
  {
    "COMPOUND": "Cc1nc2ccccc2c(/C=C/c2ccccc2)c1C(=O)/C=C/c1ccc(Cl)cc1",
    "GROUP LABEL": "label 1"
  },
  {
    "COMPOUND": "COc1ccc(/C(C#N)=C/c2nc3c(N4CCOCC4)nc(Cl)nc3n2C)cc1OC",
    "GROUP LABEL": "label 1"
  },
  {
    "COMPOUND": "OC(CNC1CCCCC1)Cn1c2ccc(I)cc2c2cc(I)ccc21 (stereo not given)",
    "GROUP LABEL": "label 0"
  },
  {
    "COMPOUND": "Cc1cc2c(c(C)c1Cl)C(=O)/C(=C/c1ccco1)O2",
    "GROUP LABEL": "label 0"
  }
]

Answer briefly: the call reported for O=c1oc2ccc(F)cc2c(=O)n1-c1ccc(F)cc1F in this assay. label 1

// outcome(item) with item = COc1cc(/C=C/C(=O)c2ccc(Nc3nc(NCCO)nc(N4CCOCC4)n3)cc2)cc(OC)c1OC label 1

Recorded test call requested for NC1C(N)C(N)C1N (stereo not given) label 0

Which result was noted for this compound in the test: CCC(C)(C)C(=O)O[C@H]1C[C@@H](C)C=C2C=C[C@H](C)[C@H](CC[C@@H]3CC=CC(=O)O3)[C@H]21 label 1

I would be grateful if you could indicate the recorded call for COc1ccccc1C(=O)O/N=C(\N)Cc1cccc2ccccc12 . label 0
